Test system: BT-549
Assay: NCI tumour cell line growth inhibition, 48 h
Calls of active or inactive are those of the source. Rule as the data show it: active = GI50 up to about 1.1 µM and inactive = higher.
Outcome (select one): active, inactive

Ask: What classification did COC1=Nc2ccccc2S(=O)(=O)C=C1 end up with in this test?
Result: inactive

Ask: Which outcome was assigned to CC(=O)O[C@H]1C(=O)[C@@]2(C)[C@H]([C@H](OC(=O)c3ccoc3)[C@]3(O)C[C@H](OC(=O)[C@H](O)[C@@H](NC(=O)c4ccccc4)c4ccccc4)C(C)=C1C3(C)C)[C@]1(OC(C)=O)CO[C@@H]1C[C@@H]2O in this test?
Result: active

Ask: Kindly provide the recorded test outcome for the following molecule: O=C(O)C(O)C(O)C(O)C(=O)CO (centres undefined)
Result: inactive

Ask: Each molecule tested received a call. Report the one for O=c1[nH]c2nc3ccccc3c(=O)n2/c1=C/c1ccccc1 .
Result: inactive

Ask: For COc1ccc(C[C@@H]2NC[C@@H](O)[C@@H]2OC(C)=O)cc1 , what call appears in the results of this test?
Result: active

---
Ask: Given CN(C)C(=S)S [SODIUM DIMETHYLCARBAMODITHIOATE] , state the outcome it received in this test.
Result: inactive

Ask: Assay outcome for CC[C@@]1(O)C(=O)OCc2c1cc1n(c2=O)Cc2c-1nc1ccccc1c2/C=N\NC(=O)C1CCCN1 (some centres undefined) : what was it?
Result: inactive

Ask: // param item: CCCCCCCCCCCCCCCCCCNc1ccn(C2OC(COP(=O)(O)OCC3OC(n4cc(F)c(NCCCCCCCCCCCCCCCCCC)nc4=O)CC3O)C(O)C2O)c(=O)n1 (centres undefined) ; yields the recorded call
Result: inactive

Ask: Per the assay record, what outcome was assigned to O=C(O)c1c(-c2ccccc2)c(=O)[nH]c2ccccc12 ?
Result: inactive

Ask: # outcome recorded in this test, key = O=C(NCP(=O)(Oc1ccccc1)Oc1ccccc1)OCc1ccccc1
Result: inactive

Ask: Answer briefly: the call reported for NCC(=O)Nc1ccccc1 in this assay.
Result: inactive

Ask: Outcome? COc1cccc(Cc2cc(=O)c3ccc(C)nc3[nH]2)c1
Result: inactive

Ask: What is the recorded call for this molecule in the test? COc1ccc2c(c1)[nH]c1c3ccc(OC)cc3oc(=O)c21
Result: inactive

Ask: What was the test verdict on COC(=O)C1=C(O)C(C(=O)OC)[C@]2(O)[C@H](C(=O)OC)[C@H]1C[C@@H](c1c(Cl)cccc1Cl)[C@H]2C(=O)OC (some centres undefined) ?
Result: inactive

Ask: Field: outcome | Entry: Cc1ccc(N2C(=O)C3c4[nH]c5ccccc5c4C4CCC(C(C)(C)C)CC4C3C2=O)cc1 (centres undefined)
Result: inactive

Ask: Check the results log: what was the call for O=c1c2cc([N+](=O)[O-])ccc2n2n1Cc1ccccc1CC2 ?
Result: inactive

Ask: Assay result, entry NC(CCCCO)C(=O)O (centres undefined) — outcome?
Result: inactive

Ask: Any idea what this test logged for CN1C(=O)N/C(=C\c2ccc(S(=O)(=O)N/N=C\C(O)C(O)C(O)CO)cc2)C1=O (centres undefined) ?
Result: inactive

Ask: Test call, this molecule: O=C1c2ccccc2C(=O)c2c(NC(=O)c3ccc4c5c(ncnc35)-c3ccccc3C4=O)cccc21
Result: inactive
